# Target of assay: ENaC (Epithelial Sodium Channel) (Mus musculus, UniProt Q61180+Q9WU38+Q9WU39)
# Construct: Mouse kidney M-1 cells were cultivated in DMEM containing 5% FCS and 5 μM dexamethasone; endogenous in cells
# Sequence (Q61180 whole entry): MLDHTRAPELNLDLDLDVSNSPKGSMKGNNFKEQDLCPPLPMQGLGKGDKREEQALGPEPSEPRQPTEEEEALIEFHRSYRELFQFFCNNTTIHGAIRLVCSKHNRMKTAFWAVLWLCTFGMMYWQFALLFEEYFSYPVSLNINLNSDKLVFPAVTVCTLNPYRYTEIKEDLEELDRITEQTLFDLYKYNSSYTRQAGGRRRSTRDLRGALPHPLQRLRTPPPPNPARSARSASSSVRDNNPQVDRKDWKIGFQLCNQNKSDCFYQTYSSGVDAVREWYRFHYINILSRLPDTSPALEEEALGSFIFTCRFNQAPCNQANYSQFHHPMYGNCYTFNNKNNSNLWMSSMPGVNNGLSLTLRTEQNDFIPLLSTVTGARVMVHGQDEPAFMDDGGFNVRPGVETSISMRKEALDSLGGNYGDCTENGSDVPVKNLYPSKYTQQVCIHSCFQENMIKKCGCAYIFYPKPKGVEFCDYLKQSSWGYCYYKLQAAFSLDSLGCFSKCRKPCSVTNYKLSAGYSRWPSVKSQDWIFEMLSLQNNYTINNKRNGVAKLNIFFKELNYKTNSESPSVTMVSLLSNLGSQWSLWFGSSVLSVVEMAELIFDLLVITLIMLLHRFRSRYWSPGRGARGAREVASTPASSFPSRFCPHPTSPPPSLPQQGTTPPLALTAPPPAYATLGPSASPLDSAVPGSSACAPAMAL
# Sequence (Q9WU38 whole entry): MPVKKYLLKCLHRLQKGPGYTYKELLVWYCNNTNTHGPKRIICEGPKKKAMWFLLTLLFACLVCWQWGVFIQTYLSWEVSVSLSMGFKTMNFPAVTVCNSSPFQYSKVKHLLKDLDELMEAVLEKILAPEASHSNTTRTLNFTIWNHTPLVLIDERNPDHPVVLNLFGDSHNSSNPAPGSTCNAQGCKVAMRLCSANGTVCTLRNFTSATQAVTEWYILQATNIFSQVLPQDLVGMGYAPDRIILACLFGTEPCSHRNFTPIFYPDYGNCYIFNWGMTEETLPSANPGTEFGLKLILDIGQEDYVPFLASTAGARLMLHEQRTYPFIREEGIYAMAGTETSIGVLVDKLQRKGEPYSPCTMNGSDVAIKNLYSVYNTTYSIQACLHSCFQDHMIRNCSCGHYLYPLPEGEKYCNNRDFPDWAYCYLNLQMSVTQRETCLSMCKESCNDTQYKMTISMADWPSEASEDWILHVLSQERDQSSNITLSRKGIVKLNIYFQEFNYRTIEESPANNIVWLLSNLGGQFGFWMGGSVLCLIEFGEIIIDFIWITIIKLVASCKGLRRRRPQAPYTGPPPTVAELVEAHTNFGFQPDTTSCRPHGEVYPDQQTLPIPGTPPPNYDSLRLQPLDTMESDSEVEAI
# Sequence (Q9WU39 whole entry): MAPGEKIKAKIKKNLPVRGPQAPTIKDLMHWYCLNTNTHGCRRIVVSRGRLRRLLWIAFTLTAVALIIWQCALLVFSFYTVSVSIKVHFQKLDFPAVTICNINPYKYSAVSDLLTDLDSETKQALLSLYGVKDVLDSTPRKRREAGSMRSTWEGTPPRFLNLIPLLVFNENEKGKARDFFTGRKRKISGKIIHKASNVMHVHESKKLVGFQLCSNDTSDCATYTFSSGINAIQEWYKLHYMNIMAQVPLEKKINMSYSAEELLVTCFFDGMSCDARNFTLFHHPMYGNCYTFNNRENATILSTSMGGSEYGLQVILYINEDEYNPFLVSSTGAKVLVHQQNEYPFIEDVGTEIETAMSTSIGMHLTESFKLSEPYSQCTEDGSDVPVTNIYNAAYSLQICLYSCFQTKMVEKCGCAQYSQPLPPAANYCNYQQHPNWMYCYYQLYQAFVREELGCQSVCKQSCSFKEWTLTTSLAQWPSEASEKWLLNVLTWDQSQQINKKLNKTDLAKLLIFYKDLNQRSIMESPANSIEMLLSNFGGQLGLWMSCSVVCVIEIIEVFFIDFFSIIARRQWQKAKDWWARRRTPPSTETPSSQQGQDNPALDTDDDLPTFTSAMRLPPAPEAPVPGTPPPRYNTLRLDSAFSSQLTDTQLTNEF
# Assay protocol: Ussing chamber assay: short circuit current (I_sc) in M-1 cells, inhibition of the amiloride sensitive I_SC
# Measurement conditions: Mouse kidney M-1 cells on transwell filters, compounds added to the apical solution, 37° C., voltage-clamp mode
pIC50: −log10 of the molar value.
Value kind: pIC50

                           substance_smiles  value_kind  obs_value
0  N/C(=N\C(=O)c1nc(Cl)c(N)nc1N)NC1CCN(Cc2ccc(=O)n(Cc3cn(Cc4ccccn4)nn3)c2)CC1       pIC50       8.22

[P] COC(=O)c1cc(CN2CCC(N/C(N)=N/C(=O)c3nc(Br)c(N)nc3N)CC2)ccn1
[Q] NC(=NC(=O)c1nc(Cl)c(N)nc1N)NC1CCN(Cc2ccc(=O)n(Cc3cccnc3)c2)CC1
[R] NC(=NC(=O)c1nc(Cl)c(N)nc1N)NC1CCN(Cc2ccccn2)CC1
Arrange by pIC50, high to low. Give the labels in the order specified.
P, Q, R
(P: 8.40, Q: 8.05, R: 7.82)
